- RECORDED_CONDITIONS: 50 μL injected subcutaneously, skin inspected next day
Peptide text beside a SMILES is read from it.
For each record, check the reported Highest tolerated dose tested: if it is below 20 mg/mL write true, else write false.

Here are 5 compounds together with their reported answers.
CC[C@H]1OC(=O)[C@H](C)[C@@H](O[C@H]2C[C@@](C)(OC)[C@@H](O)[C@H](C)O2)[C@H](C)[C@@H](O[C@@H]2O[C@H](C)C[C@H](N(C)C)[C@H]2O)[C@](C)(O)C[C@@H](C)CN(C)[C@H](C)[C@@H](O)[C@]1(C)O [AZM, azithromycin] = false
CN(C)c1cc(NC(=O)CNC(C)(C)C)c(O)c2c1C[C@H]1C[C@H]3[C@H](N(C)C)C(O)=C(C(N)=O)C(=O)[C@@]3(O)C(O)=C1C2=O [TGC, tigecycline] = true
Cn1c(N)c(NC(=O)NCCN)c[n+]1CC1=C(C(=O)O)N2C(=O)[C@@H](NC(=O)/C(=N\OC(C)(C)C(=O)[O-])c3nsc(N)n3)[C@H]2SC1 [Ceftolozane] = false
CC[C@H](C)CCCCC(=O)N[C@@H](CCN)C(=O)N[C@H](C(=O)N[C@@H](CCN)C(=O)N[C@H]1CCNC(=O)[C@H]([C@@H](C)O)NC(=O)[C@H](CCN)NC(=O)[C@H](CCN)NC(=O)[C@H](CC(C)C)NC(=O)[C@@H](CC(C)C)NC(=O)[C@H](CCN)NC1=O)[C@@H](C)O [CST, colistin] (HELM PEPTIDE1{[CC[C@H](C)CCCCC(=O)[*:2]].[Dab].T.[Dab].[Dab].[Dab].[dL].L.[Dab].[Dab].T}$PEPTIDE1,PEPTIDE1,5:R3-11:R2$$$V2.0) = true
O=C(O)c1cn(C2CC2)c2cc(N3CCNCC3)c(F)cc2c1=O [CIP, ciprofloxacin] = false

Now consider a different compound.
Task: Threshold test, Highest tolerated dose tested < 20 mg/mL: C[C@H]1[C@H](NC(=O)/C(=N\OC(C)(C)C(=O)O)c2csc(N)n2)C(=O)N1S(=O)(=O)O [ATM, aztreonam]
Output: false

All figures here come from paper PMC11130353.
